- tested.system: Hexose transporter 1 (Plasmodium falciparum)
- test: ST_JUDE_LEISH: Cytotoxicity at 2uM final concentration against transgenic Leishmania Mexicana promastigotes LmPfHT that are glucose transport deficient and complemented with the Plasmodium falciparum hexose transporter. Activity is measured by DNA content using SYBR green in vitro
- Format: functional
Each record here notes measured inhibition.
Unit % implied. Number only.

> print(dat)
                                   molecule  numeric.result
1  CN1CCN(c2ccnc3ccc(NC(=O)Nc4ccc(-c5ccncc5)c(C#N)c4)cc23)CC1           -2.42
2  COc1ccc(CNC(=O)NC2CCN(c3ccnc(Nc4ccc(F)cc4)n3)C2)cc1 (stereo not given)            5.37
3     Cc1cc(NC(=O)Nc2ccc(Cl)cc2F)c2ccccc2n1            4.56
4  C#CCCC(=O)Nc1cccc(-c2cccc(-c3nc4cccc(C)c4[nH]3)c2)c1            1.23

In the following, a different molecule is considered.
For the molecule shown here, `Cc1ccc(Cc2c[nH]c(NCCSCc3ccc(CN(C)C)s3)nc2=O)cn1` , give the reported inhibition.
1.14

====

Each record here notes measured inhibition.
- tested.system: Hexose transporter 1 (Plasmodium falciparum) (UniProt O97467)
- test: ST_JUDE_LEISH: Cytotoxicity at 2uM final concentration against transgenic Leishmania Mexicana promastigotes LmPfHT that are glucose transport deficient and complemented with the Plasmodium falciparum hexose transporter. Activity is measured by DNA content using SYBR green in vitro
- Type: functional
Unit % implied. Number only.

Examples with answers:
> print(dat)
                                   molecule  reported.endpoint  endpoint.unit  numeric.result
1  c1ccc2c(c1)CN(CC1CC1)CC1(CCN(Cc3c[nH]c4cnccc34)CC1)O2         inhibition              %            0.39
2  COc1ccc(-c2cncc3ccc(C(=O)NCCCn4ccnc4)nc23)cc1         inhibition              %            8.66
3  CCN(CC)S(=O)(=O)c1ccc(Cl)c(C(=O)Nc2ccc3nc(C)sc3c2)c1         inhibition              %           -0.92

For the molecule shown here, `Cc1cc(NCCc2ccccc2)nc(NC(=N)Nc2ccccc2Cl)n1` , give the reported inhibition.
7.74

For the molecule shown here, `Oc1ccc(CCNc2nc(NCCCOc3ccccc3-c3cccc(C(F)(F)F)c3)nc(N3CCNCC3)n2)cc1` , give the reported inhibition.
4.82

For the molecule shown here, `CCCCCCc1cc(Oc2c(I)cc(C[C@H](N)C(=O)O)cc2I)ccc1O` , give the reported inhibition.
1.79

For the molecule shown here, `Cc1cc(-c2nc3cc(C(=N)N)ccc3[nH]2)c(C)cc1-c1nc2cc(C(=N)N)ccc2[nH]1` , give the reported inhibition.
3.95

For the molecule shown here, `COc1ccnc(NCCCNCc2cn(S(=O)(=O)c3ccccc3)c3ccccc23)c1` , give the reported inhibition.
3.67

For the molecule shown here, `Cn1nccc1C(=O)NCCNCc1cccc(-c2cccc(-c3nc4cc(F)ccc4[nH]3)c2)c1` , give the reported inhibition.
3.28

For the molecule shown here, `CN(C)CCCOc1ccc(CNCc2cccc(Oc3ccc(Cl)cc3)c2)cc1` , give the reported inhibition.
2.32

For the molecule shown here, `c1ccc(-c2nc3ccccc3[nH]2)c(Nc2ccnc3cc(-c4nccs4)ccc23)c1` , give the reported inhibition.
0.91

For the molecule shown here, COc1cc(CN2CCC(N3CCc4cc(NC(=O)c5cc(C)on5)ccc43)C2)ccc1F (configuration not stated) , give the reported inhibition.
2.25

For the molecule shown here, `CCc1cccc(C)c1-n1nc(-c2cc(C(C)(C)C)oc2C)cc1N` , give the reported inhibition.
1.75

Cited source for all entries: ChEMBL document CHEMBL3433997
